- PROTOCOL_DESCRIPTION: Ratio of drug level in brain to plasma in CD-1 mouse at 15 mg/kg, po measured at 0.5 hrs
- Assay type: ADME, organism-based
- Design: dose 15 mg/kg, route oral
- TEST_CONDITIONS: read-out: BPR
MEASURE_NAME: Kp at 0.5 h

> print(dat)
                           structure.smiles  measure.name  observed.result
1  CC(C)(O)c1cc2nc(-c3cnc(N)nc3)nc(N3CCOCC3)c2s1   Kp at 0.5 h              0.2

* * *

- PROTOCOL_DESCRIPTION: Half life in po dosed CD-1 mouse
- Format: ADME, organism-based
- TEST_CONDITIONS: in vivo
MEASURE_NAME: half-life (h)

> print(dat)
                                   compound  measure.name  result.units  observed.result
1  COC(C)(C)c1cc2nc(-c3cnc(N)nc3)nc(N3CCOCC3)c2s1     half-life             h               20
2  CC1(C)OCCc2c1sc1c(N3CCOCC3)nc(-c3cnc(N)nc3)nc21     half-life             h              2.9
3  CC(C)(O)c1cc2nc(-c3cnc(N)nc3)nc(N3CCOCC3)c2s1     half-life             h              2.2
4  CC1(C)COC1c1cc2nc(-c3cnc(N)nc3)nc(N3CCOCC3)c2s1 (stereo not given)     half-life             h              3.3
5  COC1(c2sc3c(N4CCOCC4)nc(-c4cnc(N)nc4)nc3c2C)COC1     half-life             h               17

* * *

CLhep predicted by entry:
- PROTOCOL_DESCRIPTION: in vitro
- TEST_CONDITIONS: human, liver microsomes
MEASURE_NAME: CLhep predicted (mL/min/kg)

> print(dat)
                           structure.smiles     measure.name  observed.result
1  CC(C)(O)c1cc2nc(-c3cnc(N)nc3)nc(N3CCOCC3)c2s1  CLhep predicted                4
2    Cc1csc2c(N3CCOCC3)nc(-c3cnc(N)nc3)nc12  CLhep predicted               11
3  Cc1c(CN2CCN(C(=O)[C@H](C)O)CC2)sc2c(N3CCOCC3)nc(-c3cnc(N)nc3)nc12  CLhep predicted                3
4  c1cc(-c2nc(N3CCOCC3)c3sccc3n2)c2cn[nH]c2c1  CLhep predicted               16

* * *

Below, each entry is listed alongside its reported clearance.
- PROTOCOL_DESCRIPTION: Clearance in rat
- Assay type: ADME, organism-based
- TEST_CONDITIONS: in vivo
MEASURE_NAME: clearance (mL/min/kg)

> print(dat)
                           structure.smiles  measure.name  observed.result
1    Cc1csc2c(N3CCOCC3)nc(-c3cnc(N)nc3)nc12     clearance              238
2  Cc1c(CN2CCN(C(=O)[C@H](C)O)CC2)sc2c(N3CCOCC3)nc(-c3cnc(N)nc3)nc12     clearance                3
